Target: HSD17B13 (Homo sapiens (Human))
Sequence (Q7Z5P4 20-300): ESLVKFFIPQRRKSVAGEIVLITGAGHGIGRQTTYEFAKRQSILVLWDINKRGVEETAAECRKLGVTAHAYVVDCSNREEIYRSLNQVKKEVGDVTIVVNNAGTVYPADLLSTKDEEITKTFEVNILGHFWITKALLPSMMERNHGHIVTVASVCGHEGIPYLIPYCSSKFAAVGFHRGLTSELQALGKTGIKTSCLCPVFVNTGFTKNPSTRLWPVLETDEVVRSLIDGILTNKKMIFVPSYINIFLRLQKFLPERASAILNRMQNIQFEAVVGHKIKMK
Quantity Kind: IC50

{"Mol Smiles": "[2H]C([2H])([2H])c1nc2c(F)ccc(NC(=O)c3cc(Cl)c(O)c(Cl)n3)c2c(=O)n1Cc1ccccc1C(F)(F)F", "IC50": "100 to 500 nM"}

Give HSD17B13 (Homo sapiens (Human)) IC50 for `O=C(Nc1cccc2ncn(Cc3ccc(OC(F)(F)F)cc3)c(=O)c12)c1cc(Cl)c(O)c(Cl)n1`
100 to 500 nM

Which measured IC50 belongs to `O=C(Nc1ncsc1C(=O)NCc1ccccc1C(F)(F)F)c1cc(Cl)c(O)c(Cl)c1` , tested on HSD17B13 (Homo sapiens (Human))?
100 to 500 nM

Form entry - test system: HSD17B13 (Homo sapiens (Human)); read-out: IC50; compound: `O=C(Nc1cccc2ncn(Cc3cccc(F)c3)c(=O)c12)c1cc(Cl)c(O)c(Cl)c1`
100 to 500 nM

Tell me reported IC50 for `O=C(Nc1ncsc1C(=O)NCCc1ccccc1C(F)(F)F)c1cc(Cl)c(O)c(Cl)c1` , tested with HSD17B13 (Homo sapiens (Human)).
100 to 500 nM

---

pIC50 values by entry
Target: HSD17B13 (Homo sapiens (Human))
pIC50: −log10 of the molar value.

Consider the worked cases shown below.
{"Compound": "Cc1nc2c(Cl)ccc(NC(=O)c3cc(Cl)c(O)c(Cl)c3)c2c(=O)n1Cc1ncccc1C(F)(F)F [Example 166]", "Quantity Kind": "pIC50", "Result": "6.30 to 7.00"}
{"Compound": "NS(=O)(=O)c1ccccc1Cn1cnc2cccc(NC(=O)c3cc(Cl)c(O)c(Cl)c3)c2c1=O [Example 106]", "Quantity Kind": "pIC50", "Result": "< 5.00"}
{"Compound": "O=C(Nc1cc(Cl)sc1C(=O)NCc1ccccc1OC(F)(F)F)c1cc(Cl)c(O)c(Cl)c1 [Example 37]", "Quantity Kind": "pIC50", "Result": "≥ 7.00"}
{"Compound": "Cc1ccc(NC(=O)c2cc(Cl)c(O)c(Cl)c2)c2c(=O)n(Cc3ncccc3F)c(C)nc12 [Example 183]", "Quantity Kind": "pIC50", "Result": "6.30 to 7.00"}
{"Compound": "Cc1nc2c(F)ccc(NC(=O)c3cc(Cl)c(O)c(Cl)c3)c2c(=O)n1Cc1ncccc1C(F)(F)F [Example 154]", "Quantity Kind": "pIC50", "Result": "≥ 7.00"}

Request: pIC50, test system HSD17B13 (Homo sapiens (Human)), entry Cc1ccc(NC(=O)c2cc(Cl)c(O)c(Cl)n2)c2c(=O)n(Cc3ncccc3F)c(C)nc12 [Example 195]
5.00 to 6.00

Requested read-out pIC50, target or system HSD17B13 (Homo sapiens (Human)), entry O=C(Nc1csc2ncn(Cc3ccccc3)c(=O)c12)c1cc(Cl)c(O)c(Cl)c1 [Example 97]
6.30 to 7.00

Find pIC50 (HSD17B13 (Homo sapiens (Human))) for the entry O=C(Nc1cnccc1C(=O)NCc1ccccc1OC(F)(F)F)c1cc(Cl)c(O)c(Cl)c1 [Example 73]
6.30 to 7.00

Look up pIC50 with HSD17B13 (Homo sapiens (Human)) for this compound: O=C(Nc1ccnc2ncn(Cc3ccccc3OC(F)(F)F)c(=O)c12)c1cc(Cl)c(O)c(Cl)c1 [Example 92]
6.30 to 7.00
